System: RXRa homodimer (NR concentration 180 nM)
Procedure Text: PBM binding z-score (relative to random genomic background probes); higher = stronger binding; sequences stand for … in GC…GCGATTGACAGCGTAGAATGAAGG
For each entry below, report its PBM binding z-score value.
Give the value as a plain number.

RXRa homodimer (NR concentration 180 nM) / PBM binding z-score / TCTTGTAGATCAATAGAGGCTAAGAAAGTGCGCT : value?
0.213

// fetch RXRa homodimer (NR concentration 180 nM) PBM binding z-score for GCTTACGGGACAAAGGTTATAGCATGAATAGAAT
2.36

I'm curious: which PBM binding z-score was measured for TCATATAGGTAAACAGGTGAAAGTACGTAAGTTA tested on RXRa homodimer (NR concentration 180 nM)?
1.31

Please state recorded PBM binding z-score (tested on RXRa homodimer (NR concentration 180 nM)) of CAAACTAGGTCACCGGCAGGTCAAAGTCCGCATG
6.42

Please provide the recorded PBM binding z-score for ATATGTAGGTTAAGGTTCATTCAGGTTGGTTCGC , tested on RXRa homodimer (NR concentration 180 nM).
3.38

Observed PBM binding z-score on RXRa homodimer (NR concentration 180 nM) for ACTCGGAGGACATAGGTCAGAGCTACGCCAGTGA , please.
2.26

Give PBM binding z-score (RXRa homodimer (NR concentration 180 nM)) of the following sequence: TCTTGGAGATCAATAGAGGTTAAGAAAGTGCGCT
1.5

# query: PBM binding z-score | item TTACCAAGGTGAAAGTTCGTTGATGCACGCCTTG | system: RXRa homodimer (NR concentration 180 nM)
2.86

// map TCTATTAGCTGATTAGGGCAACCGAAACAGCGGA to recorded PBM binding z-score (system: RXRa homodimer (NR concentration 180 nM))
0.233

Item: CCTCGGAGGACAGAAGGTCAGAGCGGTCCGCTTT Test system: RXRa homodimer (NR concentration 180 nM) Read-out: PBM binding z-score Value: ?
1.82

Test system RXRa homodimer (NR concentration 180 nM); read-out PBM binding z-score; what value for TCTATTAGTTGAAGGGCAACCTACGAGTCCGTTT ?
0.858

Tell me reported PBM binding z-score for ATATGTAGGTTACATCCGGGTCATTTAGGCTATG , tested with RXRa homodimer (NR concentration 180 nM).
3

Where do the numbers come from? From the supplement of paper PMC6555819.
